Measured response by item
B1: PilT^Pa two-hybrid fusion from pKT25::PilT^Pa (wild type) [Pseudomonas aeruginosa] / PilT^Pa two-hybrid fusion from pUT18C::pilT [Pseudomonas aeruginosa] (parent)
chain 1: MDITELLAFSAKQGASDLHLSAGLPPMIRVDGDVRRINLPPLEHKQVHALIYDIMNDKQRKDFEEFLETDFSFEVPGVARFRVNAFNQNRGAGAVFRTIPSKVLTMEELGMGEVFKRVSDVPRGLVLVTGPTGSGKSTTLAAMLDYLNNTKYHHILTIEDPIEFVHESKKCLVNQREVHRDTLGFSEALRSALREDPDIILVGEMRDLETIRLALTAAETGHLVFGTLHTTSAAKTIDRVVDVFPAEEKAMVRSMLSESLQSVISQTLIKKIGGGRVAAHEIMIGTPAIRNLIREDKVAQMYSAIQTGGSLGMQTLDMCLKGLVAKGLISRENAREKAKIPENF
chain 2: B1 chain 1

- Variants of: B1
- procedure summary: bacterial two-hybrid (BACTH), β-galactosidase activity
- condition: with PilT^Pa two-hybrid fusion from pUT18C::pilT [Pseudomonas aeruginosa]; E. coli BTH101; n = 3; parent: 9.3e+03; read off a plot
Your answer should be a plain number; it is taken to be in Miller units.

Look over these answered cases.
Consider the variant chain 1 R294E and give its recorded response.
8600

Consider the variant chain 1 H229A and give its recorded response.
11000

Consider the variant chain 1 E219K and give its recorded response.
8600

---
Consider the variant chain 1 E258A and give its recorded response.
9300

Consider the variant chain 1 D31K and give its recorded response.
7000
